pKi: −log10 of the molar value.
We begin with pKi values for Carbonic anhydrase 5A, mitochondrial (Homo sapiens, UniProt P35218), as collected from the published literature.
MEASURED_PROPERTY: pKi

INSERT INTO results (input_smiles, tgt, assay_value) VALUES
  ('CC1(C)C2CC[C@@]1(CS(=O)(=O)NCc1ccc(S(N)(=O)=O)cc1)C(=O)C2', 'Carbonic anhydrase 5A, mitochondrial (Homo sapiens, UniProt P35218)', 7.56),
  ('CC(=O)OC[C@H]1O[C@@H]([Se]c2ccc(NC(=O)c3ccc(S(N)(=O)=O)cc3)cc2)[C@H](OC(C)=O)[C@@H](OC(C)=O)[C@@H]1OC(C)=O', 'Carbonic anhydrase 5A, mitochondrial (Homo sapiens, UniProt P35218)', 7.04),
  ('Cn1nc(S(N)(=O)=O)sc1=N', 'Carbonic anhydrase 5A, mitochondrial (Homo sapiens, UniProt P35218)', 5.67),
  ('CC(C)(C)OC(=O)N(CCCCN(CCCNC(=O)C(F)(F)F)C(=O)OC(C)(C)C)CCCNC(=O)C(F)(F)F', 'Carbonic anhydrase 5A, mitochondrial (Homo sapiens, UniProt P35218)', 3.90),
  ('Nc1nnc(S(N)(=O)=O)s1', 'Carbonic anhydrase 5A, mitochondrial (Homo sapiens, UniProt P35218)', 5.64),
  ('NS(=O)(=O)c1ccc(CNC(=O)Cc2cccs2)cc1', 'Carbonic anhydrase 5A, mitochondrial (Homo sapiens, UniProt P35218)', 8.04),
  ('CC(=O)OC[C@H]1O[C@@H]([Se]c2ccc(NC(=S)Nc3ccc(S(N)(=O)=O)cc3)cc2)[C@H](OC(C)=O)[C@@H](OC(C)=O)[C@H]1OC(C)=O', 'Carbonic anhydrase 5A, mitochondrial (Homo sapiens, UniProt P35218)', 6.32),
  ('Nc1ccccc1S(N)(=O)=O', 'Carbonic anhydrase 5A, mitochondrial (Homo sapiens, UniProt P35218)', 4.82),
  ('Cc1cn([C@H]2C[C@@H](n3cc(COc4ccc5c(c4)C=CS(=O)(=O)O5)nn3)[C@@H](CO)O2)c(=O)[nH]c1=O', 'Carbonic anhydrase 5A, mitochondrial (Homo sapiens, UniProt P35218)', 6.76),
  ('NCCCCCN', 'Carbonic anhydrase 5A, mitochondrial (Homo sapiens, UniProt P35218)', 7.36);

* * *

We begin with pKi values for Carbonic anhydrase 5A, mitochondrial (Homo sapiens), as collected from the published literature.
pKi: −log10 of the molar value.
Short version: pKi at least 5 is rule met, less is rule not met.

INSERT INTO results (input_smiles, cat) VALUES
  ('CC(C)[C@@H](NC(=O)OCc1ccccc1)C(=O)NCCc1ccc(S(N)(=O)=O)cc1', 'rule met'),
  ('O=C(O)C[C@H](O)C(=O)O', 'rule not met'),
  ('OB(O)c1ccccc1', 'rule not met'),
  ('CC(=O)OC[C@H]1O[C@@H]([Se]c2ccc(NC(=O)c3ccc(Cl)c(S(N)(=O)=O)c3)cc2)[C@H](OC(C)=O)[C@@H](OC(C)=O)[C@@H]1OC(C)=O', 'rule met'),
  ('CC(C)C[C@H](NC(=O)[C@H](Cc1ccccc1)NC(=O)c1cnccn1)B(O)O', 'rule met'),
  ('Cc1cn([C@H]2C[C@@H](n3cc(CNC(=O)Nc4cccc(S(N)(=O)=O)c4)nn3)[C@@H](CO)O2)c(=O)[nH]c1=O', 'rule met'),
  ('CC1(C)O[C@@H]2[C@@H](CO[C@@]3(CNS(N)(=O)=O)OC(C)(C)O[C@@H]23)O1', 'rule met'),
  ('NCCNCCN', 'rule not met');
